System Tested: Bromodomain-containing protein 4 (Homo sapiens, UniProt O60885)
Procedure Details: Binding affinity to TEV cleavage site-fused-His-tagged BRD4(BD1) (unknown origin) assessed as change in melting temperature at 10 uM by RT-PCR based thermal shift assay
Assay Readout: ΔTm (°C)

>>> observed_result("CCn1cnc2c1c(=O)[nH]c(=O)n2Cc1ccc(CNS(=O)(=O)c2ccc3c(c2)CCC(=O)N3)cc1")
3
>>> observed_result("CCn1cnc2c1c(=O)[nH]c(=O)n2Cc1ccc(CNS(=O)(=O)c2ccc3c(c2)n(C)c(=O)n3C)cc1")
2.13
>>> observed_result("CCn1cnc2c1c(=O)[nH]c(=O)n2Cc1ccc(CNS(=O)(=O)c2ccc(OCc3ccccc3)cc2)cc1")
3.5
>>> observed_result("CCn1cnc2c1c(=O)[nH]c(=O)n2Cc1ccc(CNS(=O)(=O)c2ccc(C)cc2)cc1")
3
